# tested.on: hADORA1/CHO (hA1 expressing) cells (Homo sapiens (Human))
# Sequence (P30542 whole entry): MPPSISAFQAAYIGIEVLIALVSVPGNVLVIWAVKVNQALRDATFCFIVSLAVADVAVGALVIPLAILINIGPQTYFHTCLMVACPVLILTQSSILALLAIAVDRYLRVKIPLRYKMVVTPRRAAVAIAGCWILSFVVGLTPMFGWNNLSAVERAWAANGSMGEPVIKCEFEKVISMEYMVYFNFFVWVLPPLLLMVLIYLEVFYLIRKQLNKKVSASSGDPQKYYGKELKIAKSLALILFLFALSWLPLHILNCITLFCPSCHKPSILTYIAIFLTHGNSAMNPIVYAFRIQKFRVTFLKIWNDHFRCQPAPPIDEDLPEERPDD
# assay.notes: cell-based
# measurement.conditions: cAMP & FLIPR IC50 (nM) hA1, FLIPR inhibition, 10 μM adenosine
observation.type: IC50 (nM)
# output: bare number, implied unit nM

Recorded IC50, per entry:
Name the recorded IC50 of the compound listed here: Nc1nc(-c2ncco2)c(-c2ccc3[nH]cnc3c2)nc1C(=O)NCc1ncccc1F
10000

Write down IC50 measured for item Cc1cnc2ccc(-c3nc(C(=O)NC(C)C)c(N)nc3-c3ncco3)cn12
10000

Look up IC50 of Cc1cnc2ccc(-c3nc(C(=O)NC[C@H]4CCCO4)c(N)nc3-c3ncco3)cn12 and report it.
1230

Supply measured IC50 of CN(C)CCOc1cccnc1CNC(=O)c1nc(-c2ccc3ncn(C)c3c2)c(-c2ccc(F)cc2)nc1N in your reply.
61

Fill in reported IC50 for this entry: Cn1cc(-c2nc(C(=O)NC(CO)c3c(F)cccc3F)c(N)nc2-c2ncco2)ccc1=O (stereo not drawn)
70

New cases:
Please report the measured IC50 for Cc1cnc2ccc(-c3nc(C(=O)NC[C@@H]4CCCO4)c(N)nc3-c3ncco3)cn12
2420

Supply IC50 value. Item: Nc1nc(-c2ncco2)c(-c2ccc3nccn3c2)nc1C(=O)NCc1ncccc1F
10000

Tell me its IC50 given Cc1cnc2ccc(-c3nc(C(=O)NC[C@@H]4CCOC4)c(N)nc3-c3ncco3)cn12 as the entry.
10000

# return recorded IC50 for entry Nc1nc(-c2ncco2)c(-c2ccc3ncnn3c2)nc1C(=O)NCc1ncccc1F
10000

Please report IC50 for the following compound: Cc1cnc2ccc(-c3nc(C(=O)NC[C@H]4CCOC4)c(N)nc3-c3ncco3)cn12
10000

Quote IC50 reported for Cc1cc(-c2nc(C(=O)NCc3ncccc3OC(F)F)c(N)nc2-c2ccc(F)cc2)cc(C)n1 please.
142

Entry Cn1cc(-c2nc(C(=O)NCc3nc(N)ccc3F)c(N)nc2-c2ncco2)ccc1=O needs its IC50 filled in; supply it.
1710

###

# tested.on: hA2b/CHO (Homo sapiens (Human))
# assay.notes: cAMP inhibition assay in hA2b/CHO cells, 10 μM adenosine
# Format: cell-based
# measurement.conditions: read-out: cAMP & FLIPR IC50 (nM) hA2b
Quick reference for IC50 among some molecules
# output: bare number, implied unit nM

Worked examples follow.
Identify measured IC50 associated with COc1ccccc1CNC(=O)c1nc(-c2cc(C)nc(C)c2)c(-c2ccccc2)nc1N [Example 93]
354

Respond only with IC50 recorded for Cc1cnc2ccc(-c3nc(C(=O)NC[C@@H]4CCCO4)c(N)nc3-n3nccn3)cn12 [Example 226]
177

# return recorded IC50 for input COCCn1cc(-c2nc(C(=O)NCc3c(F)cccc3F)c(N)nc2-c2ncco2)ccc1=O [Example 103]
2130

New cases:
Name the recorded IC50 of the molecule listed here: Cc1cc(-c2nc(C(=O)NCc3c(F)cccc3OC(F)F)c(N)nc2-c2ccc(F)cc2)cc(C)n1 [Example 85]
418

###

# tested.on: hA2b/CHO (Homo sapiens (Human), UniProt P29275)
# Sequence (P29275 whole entry): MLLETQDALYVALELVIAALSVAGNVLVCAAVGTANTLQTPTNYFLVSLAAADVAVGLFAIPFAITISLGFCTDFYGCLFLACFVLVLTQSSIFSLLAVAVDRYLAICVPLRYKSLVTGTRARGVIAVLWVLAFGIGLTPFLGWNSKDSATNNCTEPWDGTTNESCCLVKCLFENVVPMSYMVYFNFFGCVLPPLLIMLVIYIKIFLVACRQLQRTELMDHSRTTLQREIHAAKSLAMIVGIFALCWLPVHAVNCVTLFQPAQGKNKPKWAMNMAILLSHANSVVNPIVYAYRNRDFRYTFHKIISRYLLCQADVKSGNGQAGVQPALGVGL
# assay.notes: cAMP inhibition assay in hA2b/CHO cells, 10 μM adenosine;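 note: cells exposed to compound 30 min at 37 °C, then stimulated with adenosine a further 30 min, cAMP read after 60 min at room temperature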
# Type: cell-based
# measurement.conditions: read-out: cAMP & FLIPR IC50 (nM) hA2b
Listed compounds paired with reported IC50
A number alone suffices; assume nM.

Quickly give me recorded IC50 for CNc1ccc(F)c(CNC(=O)c2nc(-c3ccc(=O)n(C)c3)c(-c3ncco3)nc2N)n1
249

Please look at this compound and report its IC50: CN(C)c1cccc(CNC(=O)c2nc(-c3ccc(=O)n(C)c3)c(-c3ccc(F)cc3)nc2N)n1
4640

Quick one: give measured IC50 for Cc1scnc1CNC(=O)c1nc(-c2ccc(=O)n(C)c2)c(-c2ncco2)nc1N
2550

Give me measured IC50, please, for this compound: COC[C@H](C)NC(=O)c1nc(-c2ccc3ncc(C)n3c2)c(-c2ncco2)nc1N
163

Tell me measured IC50 for Cc1cnc2ccc(-c3nc(C(=O)NC[C@H]4CCCN4)c(N)nc3-c3ncco3)cn12 please.
887

State its IC50 for this compound: Cc1cnc2ccc(-c3nc(C(=O)NCC4CCO4)c(N)nc3-c3ncco3)cn12 (single isomer, unassigned) [Example 135]
182

Others:
Query IC50 for CN1CCCC1CNC(=O)c1nc(-c2ccc3ncc(C(F)(F)F)n3c2)c(-c2ncco2)nc1N (single isomer, unassigned) [Cmpd. 202]
1130

Indicate the recorded IC50 value for this compound: COC(C)CNC(=O)c1nc(-c2ccc3ncc(C)n3c2)c(-c2ncco2)nc1N (racemic) [Example 228]
210
